Assay method text: In vivo biodistribution method
Set-up: species or system Adult male Wistar rats
Particulars: brain, 60 min after injection
Measurement type: % Activity in Brain = Parent @ 60 min (%)

Compound: CCN(CC)C(=O)C1CC(C)Cc2c1c1ccccc1n2CC[18F] (centres unmarked)
Measurement type: % Activity in Brain = Parent @ 60 min
Quantitative result: 90.37
--
Compound: CCN(CC)C(=O)C1CCCc2c1c1c(F)cccc1n2CC[18F] (centres unmarked)
Measurement type: % Activity in Brain = Parent @ 60 min
Quantitative result: 92.70
--
Compound: CCN(CC)C(=O)C1Sc2ccccc2-c2c1c1cc(OC)ccc1n2CC[18F] (racemic) [tetracyclic indole, reference compound]
Measurement type: % Activity in Brain = Parent @ 60 min
Quantitative result: 96.00
--
Compound: CN(Cc1ccccc1)C(=O)C1CCCc2c1c1ccccc1n2CC[18F] (centres unmarked)
Measurement type: % Activity in Brain = Parent @ 60 min
Quantitative result: 81.28
--
Compound: CCN(CC)C(=O)C1CCCc2c1c1cc(F)ccc1n2CC[18F] (centres unmarked)
Measurement type: % Activity in Brain = Parent @ 60 min
Quantitative result: 84.30

----------
Experimental system: Wistar rat heart PBR (Rattus norvegicus)
pKi: −log10 of the molar value.
Everything with pKi lower than 9 is NOT MET; everything else, including exactly 9, is MET.

Compound: CCN(CC)C(=O)C1CC(C)Cc2c1c1ccccc1n2CCF (stereo not drawn) [Imaging agent 11]
Experimental system: Wistar rat heart PBR (Rattus norvegicus)
Label: NOT MET
--
Compound: CCN(CC)C(=O)C1CCCc2c1c1c(OC)cccc1n2CCF (stereo not drawn) [Imaging agent 5]
Experimental system: Wistar rat heart PBR (Rattus norvegicus)
Label: NOT MET
--
Compound: CCN(CC)C(=O)C1CCCc2c1c1cc(F)ccc1n2CCF (stereo not drawn) [Imaging agent 9]
Experimental system: Wistar rat heart PBR (Rattus norvegicus)
Label: NOT MET
--
Compound: CCN(CC)C(=O)C1Sc2ccccc2-c2c1c1cc(OC)ccc1n2CCF (racemic) [tetracyclic indole, reference compound]
Experimental system: Wistar rat heart PBR (Rattus norvegicus)
Label: MET
--
Compound: O=C(C1CCCc2c1c1ccccc1n2CCF)N1CCCCC1 (stereo not drawn) [Imaging agent 6]
Experimental system: Wistar rat heart PBR (Rattus norvegicus)
Label: NOT MET

Ref: patent US9220795B2
